Entries annotated with measured rel. Maximum binding (OD450-690 nm, scFv/OD450-690 nm, Amatuximab)
molecular target: T1, plasma-membranous human MSLN on cell lines (H226, HPAC, H292, OVCAR-3, MeT-5A) (human, UniProt Q13421 296-598); assay: cELISA on H226 cells, HRP-Protein L
T1 construct: whole, on cells; also called human MSLN on H226 cells; mesothelin on target cells
Your answer should be a plain number; it is taken to be in ratio.

Reference set (3 entries):
reference anti-MSLN scFv PRO1795 (scFv, also called 54-22-H03-sc01) scFv: DIQMTQSPSSLSASVGDRVTITCQASESIGNYLAWYQQKPGKAPKLLIYSASTLASGVPSRFSGSGSGTDFTLTISSLQPEDFATYYCQSTDYGDSYIFGTGTKVTVLGGGGGSGGGGSGGGGSGGGGSEVQLVESGGGLVQPGGSLRLSCAASGISVSNDYYMCWVRQAPGKGLEWIGCISTYIGNTHYASWAKGRFTISRDNSKNTVYLQMNSLRAEDTAVYYCAKNAGYPGYRYAIDLWGQGTLVTVSS :: 0.71
anti-MSLN scFv PRO2309 (scFv, VL/VH interdomain disulfide variant; also called 54-32-A07-sc09; PRO1925-S14R-T87R-T22K-DIS) scFv: ALQMTQSPSSLSARVGDRVTIKCQASQSISNYLAWYQQKPGKPPKFLIYDASDLASGVPSRFSGSGSGRDFTLTISSLQPEDFATYYCQQVYDSNNVENVFGCGTKVTVLGGGGGSGGGGSGGGGSGGGGSQSQLVESGGGLVQPGGSLRLSCAVSGFSLSSYAMGWVRQAPGKCLEYIGYISKIGTTYYASWAKGRFTISKDNSKNTVYLQMNSLRAEDTAVYFCARGSSSGGYLDDGFDPWGQGTLVTVSS :: 0.78
anti-MSLN scFv PRO1783 (scFv, also called 54-01-G02-sc01) scFv: DIQMTQSPSSLSASVGDRVTITCQASQNIYSNLAWYQQKPGKAPKLLIYDASDLASGVPSRFSGSGSGTDFTLTISSLQPEDFATYYCQQVRSSSDIDNPFGTGTKVTVLGGGGGSGGGGSGGGGSGGGGSQVQLVESGGGLVQPGGSLRLSCAASGFSLSSYAMGWVRQAPGKGLEWIGYISTINNTYYASWAKGRFTISRDNSKNTVYLQMNSLRAEDTAVYYCAREIRSGWVDYGFSIWGQGTLVTVSS :: 0.57

// below: rel. Maximum binding (OD450-690 nm, scFv/OD450-690 nm, Amatuximab) requested for another binder
Q) Quick check: rel. Maximum binding (OD450-690 nm, scFv/OD450-690 nm, Amatuximab) of anti-MSLN scFv PRO1925 (scFv, also called 54-32-A07-sc02) scFv: ALQMTQSPSSLSASVGDRVTITCQASQSISNYLAWYQQKPGKPPKFLIYDASDLASGVSSRFSGSGSGTDFTLTISSLQPEDFATYYCQQVYDSNNVENVFGTGTKVTVLGGGGGSGGGGSGGGGSGGGGSQSQLVESGGGLVQPGGSLRLSCAVSGFSLSSYAMGWVRQAPGKGLEYIGYISKIGTTYYASWAKGRFTISKDNSKNTVYLQMNSLRAEDTAVYFCARGSSSGGYLDDGFDPWGQGTLVTVSS ?
A) 0.58
